Provenance of the data: paper PMC6598542

Item-by-item account of pKi
biological target: hCA IV (Homo sapiens); construct: gene CA4; assay: stopped-flow CO2 hydration; assay type: biochemical
Sequence (P22748 19-284): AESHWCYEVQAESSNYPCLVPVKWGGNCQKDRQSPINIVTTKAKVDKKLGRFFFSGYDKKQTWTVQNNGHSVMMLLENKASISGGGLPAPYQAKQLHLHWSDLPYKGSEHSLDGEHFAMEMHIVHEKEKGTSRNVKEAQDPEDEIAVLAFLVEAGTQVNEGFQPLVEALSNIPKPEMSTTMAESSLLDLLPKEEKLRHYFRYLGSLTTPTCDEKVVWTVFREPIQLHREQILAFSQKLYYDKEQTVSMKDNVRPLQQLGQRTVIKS
pKi: −log10 of the molar value.
observedProperty: pKi

[[record]]
smilesstructure = "N#Cc1cccc(-n2cc(CNC(=O)c3ccc(F)c(S(N)(=O)=O)c3)nn2)c1"
observedvalue = 5.47

[[record]]
smilesstructure = "Cc1ccc(-n2cc(CNC(=O)c3ccc(F)c(S(N)(=O)=O)c3)nn2)cc1"
observedvalue = 6.67

[[record]]
smilesstructure = "NS(=O)(=O)c1cc(C(=O)NCc2cn(-c3ccc(C(F)(F)F)cc3)nn2)ccc1Cl"
observedvalue = 7.05

[[record]]
smilesstructure = "COc1ccc(-n2cc(CNC(=O)c3ccc(F)c(S(N)(=O)=O)c3)nn2)cc1"
observedvalue = 6.76

[[record]]
smilesstructure = "COc1cc(-n2cc(CNC(=O)c3ccc(Cl)c(S(N)(=O)=O)c3)nn2)cc(OC)c1OC"
observedvalue = 5.64

[[record]]
smilesstructure = "NS(=O)(=O)c1cc(C(=O)NCc2cn(-c3ccccc3)nn2)ccc1Cl"
observedvalue = 6.77

[[record]]
smilesstructure = "NS(=O)(=O)c1cc(C(=O)NCc2cn(-c3ccccc3)nn2)ccc1F"
observedvalue = 6.62

[[record]]
smilesstructure = "C#CCNC(=O)c1ccc(F)c(S(N)(=O)=O)c1"
observedvalue = 6.37

[[record]]
smilesstructure = "NS(=O)(=O)c1cc(C(=O)NCc2cn(-c3ccc(Br)cc3)nn2)ccc1F"
observedvalue = 6.29

